All figures here come from PubChem BioAssay (NCATS).

# experiment_notes: AP1 Signaling Pathway (AID 357);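 further: ME-180 reporter cells stimulated with EGF at its EC50 level; on the % scale 0 is the no-effect control and ±100 the full control effect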
# recorded_conditions: ME-180 (cervical carcinoma) AP-1-bla reporter, EGF-induced, beta-lactamase ratio, 5 h; at 17.2 µM (top of the series) unless noted
Records with an inconclusive call do not appear. The source made the active and inactive calls. The call rests on the fitted dose curve; in most records, active means well fitted curve in either direction with a large enough effect (not every such curve was filed as active); inconclusive means small, poorly fitted or top-dose-only effect, or another doubt; inactive means flat fitted curve, though single readings scatter.
property_measured: activity change, negative = inhibition

# example entries with known answers
molecule	activity change, negative = inhibition
CCCCCC[C@@H]([C@H](C)O)n1cnc2c(N)ncnc21	-20.5% [at 38 µM] (inactive)
CN1CCN(Cc2c(O)c(Cl)cc3c(-c4ccccc4)cc(=O)oc23)CC1	-17.1% (inactive)
CCOC(=O)C(C)Sc1nc(-c2cccs2)ccc1C#N (stereo unspecified)	7.21% (inactive)
CC(=O)Nc1ccccc1O	0.55% (inactive)
O=C(CN1C(=O)c2ccccc2C1=O)OCN1C(=O)c2ccccc2C1=O	8.86% (inactive)

Pending molecule:
Look at this molecule and give its reported activity change, negative = inhibition. "CCn1nc(NC(=O)c2ccco2)c2cc3ccccc3nc21" -5.14% (inactive)

----------
# experiment_notes: qHTS for Inhibitors of Plasmodium falciparum (HB3) proliferation (AID 504318);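 further: 0% = DMSO vehicle and -100% = artemisinin control; nearly all actives have a fitted effect of over 60% in size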
# recorded_conditions: P. falciparum HB3 in erythrocytes, SYBR Green DNA, 72 h; series mostly up to 7.21 µM
# Text: Plasmodium falciparum is a virulent malarial parasite that kills 1-2 million people worldwide each year. Malaria not only inflicts tremendous suffering and morbidity on the human population, but has dramatically influenced the course of civilization with profound sociological and economic implications (Shah, S. 2010). […] Because mature erythrocytes lack DNA, only Plasmodium-derived DNA is detected. […]
Records with an inconclusive call do not appear. The source made the active and inactive calls. The call rests on the fitted dose curve; in most records, active means well fitted inhibition curve with a large enough effect; inconclusive means small, poorly fitted or top-dose-only effect; inactive means flat fitted curve, though single readings scatter.
property_measured: outcome

# example entries with known answers
molecule	outcome
C[C@H]1Cc2c(COc3ccccc3)nc3c(c2CO1)CN(C(=O)Nc1cccc(C#N)c1)CC3	inactive
CCCCc1nc2c(c3c1C[C@H](C)OC3)CN(S(=O)(=O)c1ccc(C#N)cc1)CC2	inactive
CC(=O)Nc1ccc(S(=O)(=O)N2CCc3nc(COc4ccccc4)c4c(c3C2)CO[C@@H](C)C4)cc1	inactive
CCN1C(=O)N[C@@H](c2ccccc2)[C@H](C(C)=O)[C@H]1C	inactive
Cc1ccccc1Nc1oc(-c2ccccc2)nc1-c1ccc(C(F)(F)F)cc1	inactive

Look at this molecule and give its reported outcome. "CCOC(=O)CN1C(=O)N[C@@H](c2cccs2)C(C(C)=O)=C1C" inactive

Also need COC/C=C/C1=CC2=CC(=O)C(C)(OC(=O)c3cnc4ccccc4n3)C(=O)C2=CN1C(CO)CO (centres undefined) , thanks. inactive

Also need "C=CC[C@]1(C(=O)OC)C=C[C@H](C)[C@@H](c2ccccc2)N1C(=O)C(F)(F)F" , thanks. inactive

Also need "CCOC(=O)CNC(=O)O[C@@H]1C(=O)c2cc(OC)ccc2O[C@H]1c1ccc(OC)c(Br)c1" , thanks. inactive

----------
# Tested on: CP265
# experiment_notes: qHTS profiling for inhibitors of Plasmodium falciparum proliferation (AID 504749); further: nearly all actives have a fitted effect of over 60% in size
# recorded_conditions: P. falciparum in erythrocytes, SYBR Green DNA, 72 h; series mostly up to 28.7 µM
Results filed as inconclusive are left out. Calls of active or inactive are those of the source. The call rests on the fitted dose curve; in most records, active means well fitted inhibition curve with a large enough effect; inconclusive means small, poorly fitted or top-dose-only effect; inactive means flat fitted curve, though single readings scatter.
In this exercise, the only acceptable responses are T (active), F (inactive)

Please review the entries below; each comes with its answer.
molecule	assay_system	assigned_class
CNC1CCc2cc(OC)c(OC)c(OC)c2-c2ccc(OC)c(=O)cc21 (stereo unspecified)	CP265	F
CC1(C)C2CC[C@]1(C)[C@@H](O)C2	CP265	F
N#C/C(=C1/SCC(c2ccccc2Cl)S1)n1ccnc1 (stereo unspecified)	CP265	F
Nc1ncn(C2C[C@H](O)[C@@H](CO)O2)c(=O)n1 (stereo partly specified)	CP265	F

Write down the call the test reported for this molecule. Item: "CNC1=CN(O)C(c2ccccc2)=c2cc(Cl)ccc2=N1" T

Also need Nc1nc(Cl)nc2c1ncn2[C@@H]1O[C@H](CO)[C@H](O)C1F (stereo partly specified) , thanks. F
